Experiment: Clearance in Sprague-Dawley rat at 1 mg/kg, iv
Type: ADME, organism-based
Conditions: in vivo, read-out: CL(app) (converted)

Chemical Structure	clearance
CC(=O)Nc1cc(Oc2ccc(NC(=O)Cc3ccccc3C(F)(F)F)cc2)ncn1	11.7 mL/min/kg

====

Experiment: Half life in Sprague-Dawley rat at 1 mg/kg, iv
Assay type: ADME, organism-based
Conditions: in vivo
Property Label: half-life (h)

Chemical Structure	Property Label	Recorded Number
CC(=O)Nc1cc(Oc2ccc(NC(=O)Cc3ccccc3C(F)(F)F)cc2)ncn1	half-life	1.3

====

Molecular target: Receptor-type tyrosine-protein kinase FLT3 (Homo sapiens, UniProt P36888, ITD)
Sequence (P36888 whole entry, looked up, stated change not applied): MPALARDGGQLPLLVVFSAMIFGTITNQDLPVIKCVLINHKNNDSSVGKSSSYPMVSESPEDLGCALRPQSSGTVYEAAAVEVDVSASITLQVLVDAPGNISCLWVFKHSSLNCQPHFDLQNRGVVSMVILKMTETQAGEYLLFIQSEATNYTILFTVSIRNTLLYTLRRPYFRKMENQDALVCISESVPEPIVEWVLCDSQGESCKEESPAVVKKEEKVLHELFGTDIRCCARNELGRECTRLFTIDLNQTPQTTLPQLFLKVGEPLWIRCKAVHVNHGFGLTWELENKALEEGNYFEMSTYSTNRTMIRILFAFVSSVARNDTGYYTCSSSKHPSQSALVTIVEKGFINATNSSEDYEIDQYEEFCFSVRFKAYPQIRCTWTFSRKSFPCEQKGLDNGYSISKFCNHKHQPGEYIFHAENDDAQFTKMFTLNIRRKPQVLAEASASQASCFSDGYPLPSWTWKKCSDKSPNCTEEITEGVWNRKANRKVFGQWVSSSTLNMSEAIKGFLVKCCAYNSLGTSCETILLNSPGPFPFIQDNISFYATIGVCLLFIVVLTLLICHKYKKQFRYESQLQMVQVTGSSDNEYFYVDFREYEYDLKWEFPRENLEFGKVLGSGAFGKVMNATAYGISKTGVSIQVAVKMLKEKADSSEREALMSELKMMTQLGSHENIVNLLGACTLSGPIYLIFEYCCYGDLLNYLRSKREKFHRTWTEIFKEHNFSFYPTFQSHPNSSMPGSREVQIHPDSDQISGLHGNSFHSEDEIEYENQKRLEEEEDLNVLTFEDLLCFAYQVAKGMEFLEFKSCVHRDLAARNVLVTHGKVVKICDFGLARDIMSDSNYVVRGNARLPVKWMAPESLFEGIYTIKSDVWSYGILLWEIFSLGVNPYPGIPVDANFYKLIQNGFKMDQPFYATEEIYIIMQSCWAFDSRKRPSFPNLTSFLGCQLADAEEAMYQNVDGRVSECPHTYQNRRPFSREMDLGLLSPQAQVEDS
Experiment: Inhibition of FLT3 ITD mutant (unknown origin) preincubated for 60 mins followed by ATP addition and measured after 1 hr by ADP-Glo assay
pIC50: −log10 of the molar value.

Chemical Structure	pIC50
CC(=O)Nc1cc(Oc2ccc(NC(=O)Cc3ccccc3C(F)(F)F)cc2)ncn1	7.62
